# targetSystem: mIDH1 R132H (Homo sapiens, UniProt O75874, R132H)
# Construct: expressed in transfected cells; host or cells: U87MG
# Sequence (O75874 whole entry R132H): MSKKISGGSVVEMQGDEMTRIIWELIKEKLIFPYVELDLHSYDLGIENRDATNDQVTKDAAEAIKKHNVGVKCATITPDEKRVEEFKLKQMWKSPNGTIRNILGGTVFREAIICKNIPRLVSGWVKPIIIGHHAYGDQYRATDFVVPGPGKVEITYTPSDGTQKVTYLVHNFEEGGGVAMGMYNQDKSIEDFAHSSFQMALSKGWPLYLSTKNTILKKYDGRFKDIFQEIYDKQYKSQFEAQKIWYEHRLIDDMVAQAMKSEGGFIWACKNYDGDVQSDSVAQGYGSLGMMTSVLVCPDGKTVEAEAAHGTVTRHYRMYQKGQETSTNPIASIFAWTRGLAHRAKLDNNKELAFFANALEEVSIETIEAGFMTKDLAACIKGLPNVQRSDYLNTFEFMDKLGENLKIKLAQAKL
# assayOverview: Detection of 2-HG in supernatant of U87-IDH1 R132H cells
# Assay type: cell-based
# reportedConditions: U-87 MG; 10 nM compound, 72 h, U87MG cells overexpressing mIDH1 R132H, LC-MS-MS; read-out: Inhibition rate on 2-HG in the supernatant of U87-IDH R132H cells, 10 nM
quantityName: inhibition at 0.01 µM

C=CC(=O)N1CCN(C(CC2CC2)c2ccc([C@H](C)Nc3ncc4c(n3)n(CC)c(=O)n4C)cc2)CC1 (stereo partly drawn) :: 60 to 90%
C=CC(=O)N1CCN(C(CC2(C)CC2)c2ccc([C@H](C)Nc3ncc4[nH]c(=O)n(CC)c4n3)cc2)CC1 (stereo partly drawn) :: 60 to 90%

With those in mind, consider the next molecule.
[Q] Give its inhibition at 0.01 µM value. Item: C=CC(=O)N1CC2(CCN(C(CC3CC3)c3ccc([C@H](C)Nc4ncc5[nH]c(=O)n(CC)c5n4)cc3)C2)C1 (stereo partly drawn)
[A] 60 to 90%
